The measured values listed here are drawn from the supplement of paper PMC10724198.

Would you mind telling me the reported protein stability index of each entry?
# Test system: Saccharomyces cerevisiae
# assay-remarks: protein stability index of tFT-peptide fusion (C-terminal peptide) (PSI (0-1 scale)); higher = more stable (slower turnover)
# setup-conditions: genetic background: das1 deletion; temperature: 30 C
Answers are plain numbers.

Here is how some sequences turned out for protein stability index.
RLANIQSFFQRQ [TVP23 C-terminal 12 aa]: 0.715
SVFGEAEEVTNW [MET2 C-terminal 12 aa]: 0.701

For each of the sequences below, state protein stability index.
1. FLNIENPENQSE [RCO1 C-terminal 12 aa]
2. ELQDALNTELLF [VAC17 C-terminal 12 aa]
3. STSGESFTETQF [ICL2 C-terminal 12 aa]
4. NEIATKLEETKL [TYS1 C-terminal 12 aa]
5. KSLETFRTTNTL [FBA1 C-terminal 12 aa]
6. EEEEEEGKEGDA [SCT1 C-terminal 12 aa]

[0.687, 0.716, 0.697, 0.694, 0.69, 0.684]
